TEST: activity coefficient (dimensionless); of the first substance listed, at infinite dilution; xn = mol fraction of the nth substance listed
MEASUREMENT SETUP: 378.15 K; 101 kPa; Liquid; Chromatography; x1 = 0
ENDPOINT NAME: activity coefficient
When you answer, write just the number.

Quick note, activity coefficient for CC(C)=O [acetone] + O=S(=O)([N-]S(=O)(=O)C(F)(F)F)C(F)(F)F.OCCC[n+]1ccccc1 landed at 0.5

Quick note, activity coefficient for Cc1ccc(C)cc1 [1,4-dimethylbenzene] + O=S(=O)([N-]S(=O)(=O)C(F)(F)F)C(F)(F)F.OCCC[n+]1ccccc1 landed at 3.65

Quick note, activity coefficient for c1ccsc1 [thiophene] + O=S(=O)([N-]S(=O)(=O)C(F)(F)F)C(F)(F)F.OCCC[n+]1ccccc1 landed at 1.31

Quick note, activity coefficient for c1ccccc1 [benzene] + O=S(=O)([N-]S(=O)(=O)C(F)(F)F)C(F)(F)F.OCCC[n+]1ccccc1 landed at 1.62

Quick note, activity coefficient for O [water] + O=S(=O)([N-]S(=O)(=O)C(F)(F)F)C(F)(F)F.OCCC[n+]1ccccc1 landed at 1.03

Quick note, activity coefficient for Cc1ccccc1 [toluene] + O=S(=O)([N-]S(=O)(=O)C(F)(F)F)C(F)(F)F.OCCC[n+]1ccccc1 landed at 2.42

Quick note, activity coefficient for CCCO [propan-1-ol] + O=S(=O)([N-]S(=O)(=O)C(F)(F)F)C(F)(F)F.OCCC[n+]1ccccc1 landed at 1.24

Quick note, activity coefficient for C1CCOC1 [tetrahydrofuran] + O=S(=O)([N-]S(=O)(=O)C(F)(F)F)C(F)(F)F.OCCC[n+]1ccccc1 landed at 0.866

Quick note, activity coefficient for CCO [ethanol] + O=S(=O)([N-]S(=O)(=O)C(F)(F)F)C(F)(F)F.OCCC[n+]1ccccc1 landed at 0.919

Quick note, activity coefficient for CC(=O)O [acetic acid] + O=S(=O)([N-]S(=O)(=O)C(F)(F)F)C(F)(F)F.OCCC[n+]1ccccc1 landed at 0.388

Quick note, activity coefficient for CCCC(C)=O [pentan-2-one] + O=S(=O)([N-]S(=O)(=O)C(F)(F)F)C(F)(F)F.OCCC[n+]1ccccc1 landed at 1.03

Quick note, activity coefficient for Cc1cccc(C)c1 [1,3-dimethylbenzene] + O=S(=O)([N-]S(=O)(=O)C(F)(F)F)C(F)(F)F.OCCC[n+]1ccccc1 landed at 3.62

Quick note, activity coefficient for CCc1ccccc1 [ethylbenzene] + O=S(=O)([N-]S(=O)(=O)C(F)(F)F)C(F)(F)F.OCCC[n+]1ccccc1 landed at 3.79

Quick note, activity coefficient for CCC(=O)CC [pentan-3-one] + O=S(=O)([N-]S(=O)(=O)C(F)(F)F)C(F)(F)F.OCCC[n+]1ccccc1 landed at 1.09

Quick note, activity coefficient for CCCCO [butan-1-ol] + O=S(=O)([N-]S(=O)(=O)C(F)(F)F)C(F)(F)F.OCCC[n+]1ccccc1 landed at 1.67

---

Please respond with reported activity coefficient for every item in the list.
TEST: activity coefficient (dimensionless); of the first substance listed, at infinite dilution; xn = mol fraction of the nth substance listed
MEASUREMENT SETUP: 348.15 K; 101 kPa; Liquid; Chromatography; x1 = 0
When you answer, write just the number.

Quick note, activity coefficient for CC(=O)O [acetic acid] + O=S(=O)([N-]S(=O)(=O)C(F)(F)F)C(F)(F)F.OCCC[n+]1ccccc1 landed at 0.32

Quick note, activity coefficient for CCC(C)(C)C [2,2-dimethylbutane] + O=S(=O)([N-]S(=O)(=O)C(F)(F)F)C(F)(F)F.OCCC[n+]1ccccc1 landed at 28.5

Quick note, activity coefficient for Cc1ccccc1C [1,2-dimethylbenzene] + O=S(=O)([N-]S(=O)(=O)C(F)(F)F)C(F)(F)F.OCCC[n+]1ccccc1 landed at 3.13

Quick note, activity coefficient for c1ccccc1 [benzene] + O=S(=O)([N-]S(=O)(=O)C(F)(F)F)C(F)(F)F.OCCC[n+]1ccccc1 landed at 1.6

Quick note, activity coefficient for C#CCCCCC [1-heptyne] + O=S(=O)([N-]S(=O)(=O)C(F)(F)F)C(F)(F)F.OCCC[n+]1ccccc1 landed at 9

Quick note, activity coefficient for c1ccsc1 [thiophene] + O=S(=O)([N-]S(=O)(=O)C(F)(F)F)C(F)(F)F.OCCC[n+]1ccccc1 landed at 1.29

Quick note, activity coefficient for C1CCCCC1 [cyclohexane] + O=S(=O)([N-]S(=O)(=O)C(F)(F)F)C(F)(F)F.OCCC[n+]1ccccc1 landed at 17.9

Quick note, activity coefficient for CC(C)CC(C)(C)C [2,2,4-trimethylpentane] + O=S(=O)([N-]S(=O)(=O)C(F)(F)F)C(F)(F)F.OCCC[n+]1ccccc1 landed at 55.7

Quick note, activity coefficient for CCCC(C)=O [pentan-2-one] + O=S(=O)([N-]S(=O)(=O)C(F)(F)F)C(F)(F)F.OCCC[n+]1ccccc1 landed at 0.96

Quick note, activity coefficient for CC1CCCCC1 [methylcyclohexane] + O=S(=O)([N-]S(=O)(=O)C(F)(F)F)C(F)(F)F.OCCC[n+]1ccccc1 landed at 26.8

Quick note, activity coefficient for CCCCCC [hexane] + O=S(=O)([N-]S(=O)(=O)C(F)(F)F)C(F)(F)F.OCCC[n+]1ccccc1 landed at 35.6

Quick note, activity coefficient for COC(C)(C)C [2-methoxy-2-methylpropane] + O=S(=O)([N-]S(=O)(=O)C(F)(F)F)C(F)(F)F.OCCC[n+]1ccccc1 landed at 3.01

Quick note, activity coefficient for CCC(=O)CC [pentan-3-one] + O=S(=O)([N-]S(=O)(=O)C(F)(F)F)C(F)(F)F.OCCC[n+]1ccccc1 landed at 1.02

Quick note, activity coefficient for Cc1ccc(C)cc1 [1,4-dimethylbenzene] + O=S(=O)([N-]S(=O)(=O)C(F)(F)F)C(F)(F)F.OCCC[n+]1ccccc1 landed at 3.62

Quick note, activity coefficient for CCCCO [butan-1-ol] + O=S(=O)([N-]S(=O)(=O)C(F)(F)F)C(F)(F)F.OCCC[n+]1ccccc1 landed at 1.91

Quick note, activity coefficient for C1CCCC1 [cyclopentane] + O=S(=O)([N-]S(=O)(=O)C(F)(F)F)C(F)(F)F.OCCC[n+]1ccccc1 landed at 11.7

Quick note, activity coefficient for C=CCCCCCC [oct-1-ene] + O=S(=O)([N-]S(=O)(=O)C(F)(F)F)C(F)(F)F.OCCC[n+]1ccccc1 landed at 41.1

Quick note, activity coefficient for C1=CCCCC1 [cyclohexene] + O=S(=O)([N-]S(=O)(=O)C(F)(F)F)C(F)(F)F.OCCC[n+]1ccccc1 landed at 9.31

Quick note, activity coefficient for CCCCC [pentane] + O=S(=O)([N-]S(=O)(=O)C(F)(F)F)C(F)(F)F.OCCC[n+]1ccccc1 landed at 24.3

Quick note, activity coefficient for C1COCCO1 [1,4-dioxane] + O=S(=O)([N-]S(=O)(=O)C(F)(F)F)C(F)(F)F.OCCC[n+]1ccccc1 landed at 0.595

Quick note, activity coefficient for CCc1ccccc1 [ethylbenzene] + O=S(=O)([N-]S(=O)(=O)C(F)(F)F)C(F)(F)F.OCCC[n+]1ccccc1 landed at 3.87

Quick note, activity coefficient for CCCCCCC [heptane] + O=S(=O)([N-]S(=O)(=O)C(F)(F)F)C(F)(F)F.OCCC[n+]1ccccc1 landed at 54.3

Quick note, activity coefficient for C#CCCCC [1-hexyne] + O=S(=O)([N-]S(=O)(=O)C(F)(F)F)C(F)(F)F.OCCC[n+]1ccccc1 landed at 5.91

Quick note, activity coefficient for CCC(C)(C)OC [2-methoxy-2-methylbutane] + O=S(=O)([N-]S(=O)(=O)C(F)(F)F)C(F)(F)F.OCCC[n+]1ccccc1 landed at 4.7

Quick note, activity coefficient for C1CCOC1 [tetrahydrofuran] + O=S(=O)([N-]S(=O)(=O)C(F)(F)F)C(F)(F)F.OCCC[n+]1ccccc1 landed at 0.784

Quick note, activity coefficient for C#CCCCCCC [1-octyne] + O=S(=O)([N-]S(=O)(=O)C(F)(F)F)C(F)(F)F.OCCC[n+]1ccccc1 landed at 13.7

Quick note, activity coefficient for CCCOCCC [dipropyl ether] + O=S(=O)([N-]S(=O)(=O)C(F)(F)F)C(F)(F)F.OCCC[n+]1ccccc1 landed at 8.99

Quick note, activity coefficient for C=CCCC [1-pentene] + O=S(=O)([N-]S(=O)(=O)C(F)(F)F)C(F)(F)F.OCCC[n+]1ccccc1 landed at 11.5

Quick note, activity coefficient for C=CCCCCCCCC [1-decene] + O=S(=O)([N-]S(=O)(=O)C(F)(F)F)C(F)(F)F.OCCC[n+]1ccccc1 landed at 95.2

---

TEST: activity coefficient (dimensionless); of the first substance listed, at infinite dilution; xn = mol fraction of the nth substance listed
MEASUREMENT SETUP: 328.15 K; 101 kPa; Liquid; Chromatography; x1 = 0
Just a reminder that ties go to not met: only activity coefficient strictly below 5 counts as met.

Ask | Does this compound meet the criterion activity coefficient < 5? CCC(C)(C)OC [2-methoxy-2-methylbutane] + O=S(=O)([N-]S(=O)(=O)C(F)(F)F)C(F)(F)F.OCCC[n+]1ccccc1
Reply | met

Ask | Does this compound meet the criterion activity coefficient < 5? Cc1cccc(C)c1 [1,3-dimethylbenzene] + O=S(=O)([N-]S(=O)(=O)C(F)(F)F)C(F)(F)F.OCCC[n+]1ccccc1
Reply | met

Ask | Does this compound meet the criterion activity coefficient < 5? CCCCC [pentane] + O=S(=O)([N-]S(=O)(=O)C(F)(F)F)C(F)(F)F.OCCC[n+]1ccccc1
Reply | not met

Ask | Does this compound meet the criterion activity coefficient < 5? C1CCCCCCC1 [cyclooctane] + O=S(=O)([N-]S(=O)(=O)C(F)(F)F)C(F)(F)F.OCCC[n+]1ccccc1
Reply | not met

Ask | Does this compound meet the criterion activity coefficient < 5? CCC(C)CC [3-methylpentane] + O=S(=O)([N-]S(=O)(=O)C(F)(F)F)C(F)(F)F.OCCC[n+]1ccccc1
Reply | not met

Ask | Does this compound meet the criterion activity coefficient < 5? Cc1ccc(C)cc1 [1,4-dimethylbenzene] + O=S(=O)([N-]S(=O)(=O)C(F)(F)F)C(F)(F)F.OCCC[n+]1ccccc1
Reply | met

Ask | Does this compound meet the criterion activity coefficient < 5? C1CCCCCC1 [cycloheptane] + O=S(=O)([N-]S(=O)(=O)C(F)(F)F)C(F)(F)F.OCCC[n+]1ccccc1
Reply | not met

Ask | Does this compound meet the criterion activity coefficient < 5? CCCC(C)=O [pentan-2-one] + O=S(=O)([N-]S(=O)(=O)C(F)(F)F)C(F)(F)F.OCCC[n+]1ccccc1
Reply | met

Origin of values: the NIST ThermoML archive (doi:10.1016/j.jct.2011.04.018)
